Sourced from patent US20190292516A1

- method.description: Batch shake flask culture supplemented with 3TAA
- Format: cell-based, Chinese Hamster
- particulars: Chinese hamster, CHO-S stable clone producing an anti-Her2 like IgG1 antibody, Day 0 addition
endpoint: decrease in peak viable cell density at 10 days, 2.5 mM
# answer = value followed by unit

Specify measured decrease in peak viable cell density at 10 days, 2.5 mM for `O=C(O)Cc1ccsc1` .
30%
